molecular target: human recombinant HDAC1 (Homo sapiens, UniProt Q13547); assay: HDAC enzyme activity inhibition assay (HDAC Fluorimetric Drug Discovery Kit), HDAC1; conditions: human recombinant HDAC1, Fluor de Lys-SIRT1 substrate, 30° C. 60 minutes
Sequence (Q13547 whole entry): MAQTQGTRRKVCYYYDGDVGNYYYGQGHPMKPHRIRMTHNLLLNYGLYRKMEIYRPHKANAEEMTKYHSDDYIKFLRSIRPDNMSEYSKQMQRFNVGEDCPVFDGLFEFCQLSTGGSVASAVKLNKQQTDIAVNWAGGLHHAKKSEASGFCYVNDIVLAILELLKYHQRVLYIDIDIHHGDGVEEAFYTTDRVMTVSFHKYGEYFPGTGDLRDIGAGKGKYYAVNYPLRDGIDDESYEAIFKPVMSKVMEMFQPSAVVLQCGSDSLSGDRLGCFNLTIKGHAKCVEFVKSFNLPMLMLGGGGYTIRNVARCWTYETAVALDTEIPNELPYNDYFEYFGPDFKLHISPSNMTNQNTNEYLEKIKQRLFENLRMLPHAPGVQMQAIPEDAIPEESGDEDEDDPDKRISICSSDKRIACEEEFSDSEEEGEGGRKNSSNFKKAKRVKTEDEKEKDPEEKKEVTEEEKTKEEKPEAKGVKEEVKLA
Below: a set of entries, each annotated with reported IC50.

# count of solved cases: 10
Challenge: Given O=C(N(Cc1ccc(-c2nnc(C(F)F)o2)cc1F)c1ccccc1)C1(F)CCN(C2COC2)CC1 [Compound 2869] , report its IC50 on human recombinant HDAC1 (Homo sapiens, UniProt Q13547).
Response given: > 50 µM

Challenge: Given CCCC(=O)N1CC(F)(C(=O)N(Cc2ccc(-c3nnc(C(F)F)o3)cn2)c2cccc(F)c2)C1 [Compound 3165] , report its IC50 on human recombinant HDAC1 (Homo sapiens, UniProt Q13547).
Response given: > 50 µM

Challenge: Given CCN1CC(F)(C(=O)N(Cc2ccc(-c3nnc(C(F)F)o3)cn2)c2cccc(F)c2)C1 [Compound 3090] , report its IC50 on human recombinant HDAC1 (Homo sapiens, UniProt Q13547).
Response given: > 50 µM

Challenge: Given CC(C)CN1CCC(N2CC(F)(C(=O)N(Cc3ccc(-c4nnc(C(F)F)o4)cn3)c3ccccc3)C2)CC1 [Compound 3114] , report its IC50 on human recombinant HDAC1 (Homo sapiens, UniProt Q13547).
Response given: > 50 µM

Challenge: Given CN1CC(F)(C(=O)N(Cc2ccc(-c3nnc(C(F)F)o3)cc2F)c2ccccc2)C1 [Compound 3429] , report its IC50 on human recombinant HDAC1 (Homo sapiens, UniProt Q13547).
Response given: 30.9 µM

Challenge: Given O=C(N(Cc1ccc(-c2nnc(C(F)F)o2)cn1)c1cccc(F)c1)C1(F)CN(C2CCN(C3CCOCC3)CC2)C1 [Compound 3410] , report its IC50 on human recombinant HDAC1 (Homo sapiens, UniProt Q13547).
Response given: 34.7 µM

Challenge: Given CC(C)CC(=O)N1CC(F)(C(=O)N(Cc2ccc(-c3nnc(C(F)F)o3)cn2)c2cccc(F)c2)C1 [Compound 3166] , report its IC50 on human recombinant HDAC1 (Homo sapiens, UniProt Q13547).
Response given: > 50 µM

Challenge: Given O=C(C1CCCCC1)N1CC(F)(C(=O)N(Cc2ccc(-c3nnc(C(F)F)o3)cn2)c2cccc(F)c2)C1 [Compound 3170] , report its IC50 on human recombinant HDAC1 (Homo sapiens, UniProt Q13547).
Response given: > 50 µM

Challenge: Given CC(C)(C)OC(=O)N1CC(F)(C(=O)N(Cc2ccc(-c3nnc(C(F)(F)F)o3)cn2)c2cccc(F)c2)C1 [Compound 6890] , report its IC50 on human recombinant HDAC1 (Homo sapiens, UniProt Q13547).
Response given: > 50 µM

Challenge: Given COCCC(=O)N1CC(F)(C(=O)N(Cc2ccc(-c3nnc(C(F)F)o3)cn2)c2ccccc2)C1 [Compound 3157] , report its IC50 on human recombinant HDAC1 (Homo sapiens, UniProt Q13547).
Response given: > 50 µM

New cases:
Challenge: Given O=C(N(Cc1ccc(-c2nnc(C(F)F)o2)cn1)c1ccccc1)C1(F)CN(C2CCC2)C1 [Compound 2975] , report its IC50 on human recombinant HDAC1 (Homo sapiens, UniProt Q13547).
Response given: > 50 µM

Challenge: Given CN(C)CCC(=O)N1CC(F)(C(=O)N(Cc2ccc(-c3nnc(C(F)F)o3)cn2)c2cccc(F)c2)C1 [Compound 3097] , report its IC50 on human recombinant HDAC1 (Homo sapiens, UniProt Q13547).
Response given: > 50 µM

====

Below: a set of entries, each annotated with reported HDAC6 selectivity (fold).
biological target: human recombinant HDAC6 (Homo sapiens); construct: purchased Calbiochem Inc. 382180; assay: HDAC enzyme activity inhibition assay (HDAC Fluorimetric Drug Discovery Kit), HDAC6; format: biochemical; conditions: HDAC1 vs HDAC6

Challenge: Item O=C(N(Cc1ccc(-c2nnc(C(F)F)o2)cn1)c1cccc(F)c1)C1(F)CN(C2CN(C3CCOC3)C2)C1 (stereo not drawn) : provide HDAC6 selectivity (fold)
Response given: 1,022 fold

Challenge: Item "CCN1CC(F)(C(=O)N(Cc2ccc(-c3nnc(C(F)F)o3)cn2)c2cccc(F)c2)C1" : provide HDAC6 selectivity (fold)
Response given: 2,212 fold

# input for lookup
Challenge: Item "CCCN1CC(N2CC(F)(C(=O)N(Cc3ccc(-c4nnc(C(F)F)o4)cn3)c3ccccc3)C2)C1" : provide HDAC6 selectivity (fold)
Response given: 1,059 fold

====

target: human recombinant HDAC6 (Homo sapiens, UniProt Q9UBN7); construct: purchased Calbiochem Inc. 382180; assay: HDAC enzyme activity inhibition assay (HDAC Fluorimetric Drug Discovery Kit), HDAC6; type: biochemical; details: HDAC1 vs HDAC6
Sequence (Q9UBN7 whole entry): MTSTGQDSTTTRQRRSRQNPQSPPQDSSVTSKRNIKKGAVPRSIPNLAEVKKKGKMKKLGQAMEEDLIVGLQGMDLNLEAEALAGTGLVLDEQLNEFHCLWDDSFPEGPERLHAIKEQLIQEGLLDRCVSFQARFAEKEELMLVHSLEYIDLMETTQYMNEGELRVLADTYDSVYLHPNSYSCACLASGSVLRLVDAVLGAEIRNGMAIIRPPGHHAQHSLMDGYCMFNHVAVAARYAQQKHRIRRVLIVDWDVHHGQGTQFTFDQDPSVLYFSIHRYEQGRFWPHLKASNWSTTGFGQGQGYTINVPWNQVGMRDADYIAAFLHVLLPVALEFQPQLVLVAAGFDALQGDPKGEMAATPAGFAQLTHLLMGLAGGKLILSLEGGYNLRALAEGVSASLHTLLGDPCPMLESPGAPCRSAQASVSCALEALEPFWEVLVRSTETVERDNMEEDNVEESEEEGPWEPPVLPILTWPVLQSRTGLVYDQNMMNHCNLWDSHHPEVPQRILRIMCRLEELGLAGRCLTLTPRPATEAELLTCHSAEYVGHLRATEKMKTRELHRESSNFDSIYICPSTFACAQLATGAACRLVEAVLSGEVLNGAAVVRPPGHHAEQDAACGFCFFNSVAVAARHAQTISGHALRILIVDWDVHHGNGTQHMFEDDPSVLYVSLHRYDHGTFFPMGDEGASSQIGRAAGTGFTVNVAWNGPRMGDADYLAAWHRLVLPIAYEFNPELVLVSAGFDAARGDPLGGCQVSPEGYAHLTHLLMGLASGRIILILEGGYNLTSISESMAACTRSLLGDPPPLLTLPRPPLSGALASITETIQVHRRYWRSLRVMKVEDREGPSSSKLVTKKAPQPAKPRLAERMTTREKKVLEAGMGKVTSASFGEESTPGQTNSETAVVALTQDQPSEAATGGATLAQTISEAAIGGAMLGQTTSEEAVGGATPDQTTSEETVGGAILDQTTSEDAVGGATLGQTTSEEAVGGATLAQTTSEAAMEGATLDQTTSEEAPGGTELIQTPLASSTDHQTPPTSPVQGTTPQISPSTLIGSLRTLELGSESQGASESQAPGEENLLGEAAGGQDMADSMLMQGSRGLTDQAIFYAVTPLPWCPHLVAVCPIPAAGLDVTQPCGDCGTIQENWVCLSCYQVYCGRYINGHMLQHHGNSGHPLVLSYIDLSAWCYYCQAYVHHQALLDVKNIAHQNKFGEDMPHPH
assayReadout: HDAC6 selectivity (fold)

# count of solved cases: 3
Challenge: Item "CN1CCC(F)(C(=O)N(Cc2ccc(-c3nnc(C(F)F)o3)cn2)c2cccc(F)c2)CC1" : provide HDAC6 selectivity (fold)
Response given: 1,298 fold

Challenge: Item "O=C(N(Cc1ccc(-c2nnc(C(F)F)o2)cn1)c1cccc(F)c1)C1(F)CCN(C2COC2)CC1" : provide HDAC6 selectivity (fold)
Response given: 1,190 fold

Challenge: Item "CN1CC(F)(C(=O)N(Cc2ccc(-c3nnc(C(F)F)o3)cn2)c2ccccc2)C1" : provide HDAC6 selectivity (fold)
Response given: 1,075 fold

# input for lookup
Challenge: Item "CN(C)CCC(=O)N1CC(F)(C(=O)N(Cc2ccc(-c3nnc(C(F)F)o3)cn2)c2cccc(F)c2)C1" : provide HDAC6 selectivity (fold)
Response given: 1,612 fold

====

molecular target: human recombinant HDAC1 (Homo sapiens); assay: HDAC enzyme activity inhibition assay (HDAC Fluorimetric Drug Discovery Kit), HDAC1; conditions: human recombinant HDAC1, Fluor de Lys-SIRT1 substrate, 30° C. 60 minutes
pIC50: −log10 of the molar value.
assayReadout: pIC50

# count of solved cases: 4
Challenge: Item CC(C)CC(=O)N1CC(F)(C(=O)N(Cc2ccc(-c3nnc(C(F)F)o3)cn2)c2ccccc2)C1 [Compound 3155] : provide pIC50
Response given: < 4.30

Challenge: Item O=C(C1CC1)N1CC(F)(C(=O)N(Cc2ccc(-c3nnc(C(F)F)o3)cn2)c2cccc(F)c2)C1 [Compound 3217] : provide pIC50
Response given: < 4.30

Challenge: Item CCCN1CC(N2CCC(F)(C(=O)N(Cc3ccc(-c4nnc(C(F)F)o4)cn3)c3cccc(F)c3)CC2)C1 [Compound 3390] : provide pIC50
Response given: 4.62

Challenge: Item CC(C)N1CC(F)(C(=O)N(Cc2ccc(-c3nnc(C(F)F)o3)cn2)c2ccccc2)C1 [Compound 2974] : provide pIC50
Response given: < 4.30

New cases:
Challenge: Item CC(=O)N1CC(F)(C(=O)N(Cc2ccc(-c3nnc(C(F)F)o3)cn2)c2cccc(F)c2)C1 [Compound 3164] : provide pIC50
Response given: < 4.30

Challenge: Item CCCCN1CC(N2CC(F)(C(=O)N(Cc3ccc(-c4nnc(C(F)F)o4)cn3)c3cccc(F)c3)C2)C1 [Compound 3222] : provide pIC50
Response given: < 4.30

Challenge: Item O=C(N(Cc1ccc(-c2nnc(C(F)F)o2)cn1)c1cccc(F)c1)C1(F)CN(C2CN(C3COC3)C2)C1 [Compound 3395] : provide pIC50
Response given: < 4.30

====

biological target: human recombinant HDAC6 (Homo sapiens, UniProt Q9UBN7); construct: purchased Calbiochem Inc. 382180; test: HDAC enzyme activity inhibition assay (HDAC Fluorimetric Drug Discovery Kit), HDAC6; format: biochemical; details: HDAC1 vs HDAC6
assayReadout: HDAC6 selectivity (fold)

# count of solved cases: 2
Challenge: Item CC(CO)N1CC(F)(C(=O)N(Cc2ccc(-c3nnc(C(F)F)o3)cn2)c2cccc(F)c2)C1 (stereo not drawn) [Compound 3094] : provide HDAC6 selectivity (fold)
Response given: 1,901 fold

Challenge: Item O=C(N(Cc1ccc(-c2nnc(C(F)F)o2)cn1)c1ccccc1)C1(F)CN(C2CCCCC2)C1 [Compound 2999] : provide HDAC6 selectivity (fold)
Response given: 801 fold

# input for lookup
Challenge: Item CN1CCC(N2CC(F)(C(=O)N(Cc3ccc(-c4nnc(C(F)F)o4)cn3)c3ccccc3)C2)CC1 [Compound 3110] : provide HDAC6 selectivity (fold)
Response given: 1,170 fold
